A short record of AC50 observed with Alpha-1A adrenergic receptor (Homo sapiens) follows.
Sequence (P35348 whole entry): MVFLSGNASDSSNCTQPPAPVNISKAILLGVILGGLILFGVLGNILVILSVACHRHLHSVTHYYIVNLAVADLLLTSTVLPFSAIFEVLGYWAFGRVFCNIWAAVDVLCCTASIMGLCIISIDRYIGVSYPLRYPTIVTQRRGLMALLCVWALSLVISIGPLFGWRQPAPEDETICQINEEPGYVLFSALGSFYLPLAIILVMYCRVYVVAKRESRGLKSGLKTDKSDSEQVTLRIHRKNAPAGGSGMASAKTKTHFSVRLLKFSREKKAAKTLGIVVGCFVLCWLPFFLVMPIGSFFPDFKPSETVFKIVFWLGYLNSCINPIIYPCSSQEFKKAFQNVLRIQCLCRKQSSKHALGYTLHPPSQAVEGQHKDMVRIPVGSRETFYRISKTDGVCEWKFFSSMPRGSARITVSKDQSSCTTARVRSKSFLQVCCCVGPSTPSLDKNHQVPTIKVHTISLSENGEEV
Numbers only, in nM.

[
  {
    "Molecule": "CC(=O)c1ccc2c(c1)N(CCCN1CCC(CCO)CC1)c1ccccc1S2 [PIPERACETAZINE]",
    "Experimental Result": 180
  }
]

For every record below, what is its AC50?
1. OCCN1CCN(CC/C=C2/c3ccccc3Sc3ccc(Cl)cc32)CC1 [ZUCLOPENTHIXOL]
2. CNCCC=C1c2ccccc2CCc2ccccc21 [NORTRIPTYLINE]
3. [H]/N=C(\N/C(=N/[H])NCCCCCCNC(=N)NC(=N)Nc1ccc(Cl)cc1)Nc1ccc(Cl)cc1 [CHLORHEXIDINE]
4. O=C(CCCN1CCC2(CC1)C(=O)NCN2c1ccccc1)c1ccc(F)cc1 [SPIPERONE]

[11.4, 114, 607, 310]

---

- Subject Of Test: Voltage-gated inwardly rectifying potassium channel KCNH2 (Homo sapiens, UniProt Q12809)
- Sequence (Q12809 whole entry): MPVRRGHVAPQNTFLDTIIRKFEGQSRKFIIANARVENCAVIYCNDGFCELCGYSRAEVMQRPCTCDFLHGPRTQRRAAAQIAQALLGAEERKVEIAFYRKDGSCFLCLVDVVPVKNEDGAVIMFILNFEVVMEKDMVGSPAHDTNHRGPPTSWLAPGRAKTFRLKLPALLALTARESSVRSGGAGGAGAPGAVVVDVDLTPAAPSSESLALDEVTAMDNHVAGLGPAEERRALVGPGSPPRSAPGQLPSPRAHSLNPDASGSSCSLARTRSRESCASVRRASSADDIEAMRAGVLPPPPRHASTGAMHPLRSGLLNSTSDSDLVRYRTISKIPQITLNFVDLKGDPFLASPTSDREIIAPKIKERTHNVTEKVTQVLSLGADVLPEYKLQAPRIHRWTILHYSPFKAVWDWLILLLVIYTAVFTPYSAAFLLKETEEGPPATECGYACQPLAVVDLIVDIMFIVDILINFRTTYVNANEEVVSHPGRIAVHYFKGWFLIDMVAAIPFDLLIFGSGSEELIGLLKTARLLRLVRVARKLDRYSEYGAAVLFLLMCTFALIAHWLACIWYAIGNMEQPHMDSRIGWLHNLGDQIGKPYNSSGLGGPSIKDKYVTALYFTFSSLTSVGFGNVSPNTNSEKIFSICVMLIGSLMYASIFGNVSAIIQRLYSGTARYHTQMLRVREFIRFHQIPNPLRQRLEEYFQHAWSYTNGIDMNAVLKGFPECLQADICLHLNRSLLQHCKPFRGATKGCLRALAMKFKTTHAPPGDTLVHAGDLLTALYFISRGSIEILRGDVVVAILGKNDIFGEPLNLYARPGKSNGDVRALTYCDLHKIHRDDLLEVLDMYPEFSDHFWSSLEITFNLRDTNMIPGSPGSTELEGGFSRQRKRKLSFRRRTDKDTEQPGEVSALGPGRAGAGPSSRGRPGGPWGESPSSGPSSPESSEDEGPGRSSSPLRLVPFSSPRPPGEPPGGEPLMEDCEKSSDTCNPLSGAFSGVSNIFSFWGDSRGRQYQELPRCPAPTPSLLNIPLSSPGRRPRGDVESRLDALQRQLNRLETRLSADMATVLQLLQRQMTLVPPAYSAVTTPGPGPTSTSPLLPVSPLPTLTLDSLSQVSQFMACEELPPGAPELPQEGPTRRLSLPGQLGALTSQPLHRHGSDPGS
- Format: functional
- Particulars: read-out: AC50; note: assay procedure not described here
Readout Label: AC50

// solved cases for AC50 follow
[
  {
    "Molecule": "Cc1ccc(NC(=O)C2(c3ccc4c(c3)OC(F)(F)O4)CC2)nc1-c1cccc(C(=O)O)c1",
    "AC50": "> 30 µM"
  },
  {
    "Molecule": "Cn1c(=O)c2c(ncn2CC(O)CO)n(C)c1=O (stereo not drawn)",
    "AC50": "> 30 µM"
  },
  {
    "Molecule": "CCCCC[C@H](O)/C=C/[C@H]1[C@H](O)CC(=O)[C@@H]1C/C=C\\CCCC(=O)O",
    "AC50": "> 30 µM"
  },
  {
    "Molecule": "Cc1cc2c(OCC(O)CNC(C)C)cccc2[nH]1 (stereo not drawn) [MEPINDOLOL]",
    "AC50": "> 30 µM"
  },
  {
    "Molecule": "CC[C@H]1OC(=O)[C@H](C)[C@@H](O[C@H]2C[C@@](C)(OC)[C@@H](O)[C@H](C)O2)[C@H](C)[C@@H](O[C@@H]2O[C@H](C)C[C@H](N(C)C)[C@H]2O)[C@](C)(OC)C[C@@H](C)C(=O)[C@H](C)[C@@H](O)[C@]1(C)O",
    "AC50": "> 30 µM"
  }
]

For every record below, what is its AC50?
1. Clc1ccc(C(Cn2ccnc2)OCc2ccc(Sc3ccccc3)cc2)c(Cl)c1 (stereo not drawn)
2. CN(C)CCC(c1ccccc1)c1ccccn1 (stereo not drawn)
3. CN(C)CCN(Cc1ccc(Cl)cc1)c1ccccn1

1.45 µM
> 30 µM
0.54 µM

---

What AC50 was measured for each of the following?
- Subject Of Test: Mu-type opioid receptor (Homo sapiens)
- Sequence (P35372 whole entry): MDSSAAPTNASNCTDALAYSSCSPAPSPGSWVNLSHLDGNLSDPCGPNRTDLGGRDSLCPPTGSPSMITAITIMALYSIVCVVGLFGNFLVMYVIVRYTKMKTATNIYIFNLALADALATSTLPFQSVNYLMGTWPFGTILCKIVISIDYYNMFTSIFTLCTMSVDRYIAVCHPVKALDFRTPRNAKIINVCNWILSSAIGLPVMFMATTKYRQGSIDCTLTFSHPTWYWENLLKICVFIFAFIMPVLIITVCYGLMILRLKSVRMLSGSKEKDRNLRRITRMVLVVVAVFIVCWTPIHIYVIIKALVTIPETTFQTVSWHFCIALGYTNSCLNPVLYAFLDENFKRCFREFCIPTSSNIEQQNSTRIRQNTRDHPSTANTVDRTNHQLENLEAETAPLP
*1 amine or outer side, *2 acyl side, *3 side chain or, on linkers, in order; H or OH if unused. Where a SMILES comes first, the peptide text is derived from it. Bridges are numbered along the chain shown (N, C = ends). [ ]: non-standard residue; d: D form. The star is where a group is joined. hTyr(3S-OH,4S-OH,3'-OSO3H) = N[C@H](C(=O)O)[C@H](O)[C@@H](O)c1ccc(O)c(OS(=O)(=O)O)c1; Orn(4R-OH,5R-OH) = O=C([C@H](C[C@@H](O)[C@@H](O)N[*:3])N[*:1])[*:2]; Pro(3S-OH,4S-Me) = C[C@H]1CN[C@H](C(=O)O)[C@H]1O; X1 = CCCCCOc1ccc(-c2cc(-c3ccc(C(=O)*)cc3)no2)cc1; Gln(3R-OH) = NC(=O)C[C@@H](O)[C@H](N)C(=O)O; Hyp = O=C(O)[C@@H]1C[C@@H](O)CN1

[
  {
    "Molecule": "C[C@]1(COc2ccc(N3CCC(Oc4ccc(OC(F)(F)F)cc4)CC3)cc2)Cn2cc([N+](=O)[O-])nc2O1",
    "Experimental Result": "> 30 µM"
  },
  {
    "Molecule": "NCCc1ccc(O)cc1",
    "Experimental Result": "> 30 µM"
  },
  {
    "Molecule": "CCN(CC)CCOC(=O)C(Cc1cccc2ccccc12)CC1CCCO1 (configuration not stated)",
    "Experimental Result": "7.16 µM"
  },
  {
    "Molecule": "O=C(CCCN1CC=C(n2c(=O)[nH]c3ccccc32)CC1)c1ccc(F)cc1",
    "Experimental Result": "> 30 µM"
  }
]

For every record below, what is its AC50?
1. CC(C)COc1ccc(CNC(=O)N(Cc2ccc(F)cc2)C2CCN(C)CC2)cc1
2. O=C(O)CCCc1ccc(N(CCCl)CCCl)cc1
3. C1CNCCN1
4. CNC(=O)c1cc(Oc2ccc(NC(=O)Nc3ccc(Cl)c(C(F)(F)F)c3)c(F)c2)ccn1
5. CCCCCOc1ccc(-c2cc(-c3ccc(C(=O)N[C@H]4C[C@@H](O)[C@@H](O)NC(=O)[C@@H]5[C@@H](O)[C@@H](C)CN5C(=O)[C@H]([C@H](O)CC(N)=O)NC(=O)[C@H]([C@H](O)[C@@H](O)c5ccc(O)c(OS(=O)(=O)O)c5)NC(=O)[C@@H]5C[C@@H](O)CN5C(=O)[C@H]([C@@H](C)O)NC4=O)cc3)no2)cc1 [MICAFUNGIN] (X1-[Orn(4R-OH,5R-OH)]T[Hyp][hTyr(3S-OH,4S-OH,3'-OSO3H)][Gln(3R-OH)][Pro(3S-OH,4S-Me)]; lactam 1-C)
6. c1ccc2[nH]c(-c3cscn3)nc2c1
7. CCOC(=O)c1ccc(OC(=O)CCCCCNC(=N)N)cc1 [GABEXATE]

1: 16.7 µM; 2: > 30 µM; 3: > 30 µM; 4: 4.43 µM; 5: 7.68 µM; 6: > 30 µM; 7: > 30 µM

Suppose we examine the molecule CC(=O)OC(C)OC(=O)C(C)c1ccc(-c2ccccc2)c(F)c1 (configuration not stated) ; what AC50 value has been reported?
> 30 µM

---

A short record of AC50 observed with 5-hydroxytryptamine receptor 2B (Homo sapiens, UniProt P41595) follows.
Sequence (P41595 whole entry): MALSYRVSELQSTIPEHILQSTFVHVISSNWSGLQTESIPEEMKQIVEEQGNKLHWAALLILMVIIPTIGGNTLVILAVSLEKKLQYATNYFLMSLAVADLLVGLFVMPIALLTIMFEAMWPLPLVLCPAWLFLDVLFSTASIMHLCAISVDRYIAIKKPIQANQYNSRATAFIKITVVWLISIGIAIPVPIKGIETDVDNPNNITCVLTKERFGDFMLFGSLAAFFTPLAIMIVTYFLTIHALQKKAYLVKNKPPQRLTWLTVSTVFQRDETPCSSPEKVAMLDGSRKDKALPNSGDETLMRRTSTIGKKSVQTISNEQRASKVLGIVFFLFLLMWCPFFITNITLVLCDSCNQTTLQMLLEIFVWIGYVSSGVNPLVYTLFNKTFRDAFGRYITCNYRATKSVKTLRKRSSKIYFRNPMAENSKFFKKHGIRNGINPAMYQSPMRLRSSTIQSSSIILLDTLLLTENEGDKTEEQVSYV
Numbers only, in nM.

// solved cases for AC50 follow
[
  {
    "Compound": "CC(CCc1ccccc1)NC(C)C(O)c1ccc(O)cc1 (stereo not drawn)",
    "Experimental Result": 733
  },
  {
    "Compound": "O=C(CCCN1CCC2(CC1)C(=O)NCN2c1ccccc1)c1ccc(F)cc1",
    "Experimental Result": 660
  },
  {
    "Compound": "CCCN(CCC)CCc1cccc2c1CC(=O)N2",
    "Experimental Result": 27000
  }
]

For every record below, what is its AC50?
1. OCCN1CCN(CC/C=C2/c3ccccc3Sc3ccc(Cl)cc32)CC1
2. [H]/N=C(\N/C(=N/[H])NCCCCCCNC(=N)NC(=N)Nc1ccc(Cl)cc1)Nc1ccc(Cl)cc1

[14.4, 683]

For every record below, what is its AC50?
1. CN1C[C@H](C(=O)N[C@]2(C)O[C@@]3(O)[C@@H]4CCCN4C(=O)[C@H](Cc4ccccc4)N3C2=O)C[C@@H]2c3cccc4[nH]cc(c34)C[C@H]21 [DIHYDROERGOTAMINE]
2. CCCCNc1ccc(C(=O)OCCN(C)C)cc1
3. CC[C@@H](CO)NC(=O)[C@@H]1C=C2c3cccc4[nH]cc(c34)C[C@H]2N(C)C1

[63.8, 1420, 3.7]

---

- Subject Of Test: Peroxisome proliferator-activated receptor gamma (Homo sapiens)
- Sequence (P37231 whole entry): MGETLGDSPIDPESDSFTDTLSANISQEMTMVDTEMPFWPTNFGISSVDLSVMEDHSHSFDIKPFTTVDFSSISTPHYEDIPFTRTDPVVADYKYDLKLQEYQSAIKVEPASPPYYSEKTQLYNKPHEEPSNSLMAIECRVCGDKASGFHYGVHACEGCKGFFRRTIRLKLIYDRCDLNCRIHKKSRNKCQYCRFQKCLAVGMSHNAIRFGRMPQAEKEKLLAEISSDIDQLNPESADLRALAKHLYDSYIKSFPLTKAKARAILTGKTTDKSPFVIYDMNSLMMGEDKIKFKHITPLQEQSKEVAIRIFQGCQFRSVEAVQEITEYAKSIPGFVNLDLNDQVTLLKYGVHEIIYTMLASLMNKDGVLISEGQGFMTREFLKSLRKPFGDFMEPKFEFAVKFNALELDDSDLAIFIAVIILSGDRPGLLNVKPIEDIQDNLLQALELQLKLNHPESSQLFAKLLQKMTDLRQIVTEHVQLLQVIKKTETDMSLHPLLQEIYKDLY
- Format: functional
Readout Label: AC50

[
  {
    "Compound": "CC(=N)N1CC[C@H](SC2=C(C(=O)O)N3C(=O)[C@H]([C@@H](C)O)[C@H]3C2)C1",
    "AC50": "> 300 µM"
  },
  {
    "Compound": "CS(=O)(=O)OCCCCOS(C)(=O)=O",
    "AC50": "> 30 µM"
  },
  {
    "Compound": "Nc1nc2c(c(=O)[nH]1)N(C=O)C(CNc1ccc(C(=O)N[C@@H](CCC(=O)O)C(=O)O)cc1)CN2 (some centres undefined)",
    "AC50": "> 30 µM"
  }
]

Proceed to the following item.
Suppose we examine the compound "COc1cccc2c1C(=O)c1c(O)c3c(c(O)c1C2=O)C[C@@](O)(C(C)=O)C[C@@H]3O[C@H]1C[C@H](N)[C@H](O)[C@H](C)O1" ; what AC50 value has been reported?
> 30 µM

---

- Subject Of Test: Prostaglandin G/H synthase 1 (Homo sapiens, UniProt P23219)
- Sequence (P23219 whole entry): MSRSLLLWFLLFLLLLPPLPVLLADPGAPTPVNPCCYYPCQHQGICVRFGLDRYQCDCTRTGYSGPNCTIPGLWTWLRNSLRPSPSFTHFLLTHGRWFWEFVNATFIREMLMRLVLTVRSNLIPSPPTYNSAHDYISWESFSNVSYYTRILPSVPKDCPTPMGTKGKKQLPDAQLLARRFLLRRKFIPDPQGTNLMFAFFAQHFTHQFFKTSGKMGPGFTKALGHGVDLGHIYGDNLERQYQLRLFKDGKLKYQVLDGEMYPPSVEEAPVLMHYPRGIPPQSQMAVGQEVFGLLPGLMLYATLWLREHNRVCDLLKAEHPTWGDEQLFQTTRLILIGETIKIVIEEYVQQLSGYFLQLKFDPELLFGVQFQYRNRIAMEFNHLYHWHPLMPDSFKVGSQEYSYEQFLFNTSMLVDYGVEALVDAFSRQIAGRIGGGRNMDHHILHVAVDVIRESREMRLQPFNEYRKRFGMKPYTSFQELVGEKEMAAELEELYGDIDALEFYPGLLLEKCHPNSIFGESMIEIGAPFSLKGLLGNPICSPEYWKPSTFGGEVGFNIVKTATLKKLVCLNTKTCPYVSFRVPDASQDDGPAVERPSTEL
- Type: functional
Readout Label: AC50

[
  {
    "Molecule": "CCOC(=O)[C@H](CCc1ccccc1)N[C@@H](C)C(=O)N1Cc2cc(OC)c(OC)cc2C[C@H]1C(=O)O",
    "Subject Of Test": "Prostaglandin G/H synthase 1 (Homo sapiens, UniProt P23219)",
    "AC50": "> 30 µM"
  }
]

Proceed to the following item.
Suppose we examine the molecule CC(=O)O[C@H]1C[C@H](O[C@H]2[C@@H](O)C[C@H](O[C@H]3[C@@H](O)C[C@H](O[C@H]4CC[C@@]5(C)[C@H](CC[C@@H]6[C@@H]5C[C@@H](O)[C@]5(C)[C@@H](C7=CC(=O)OC7)CC[C@]65O)C4)O[C@@H]3C)O[C@@H]2C)O[C@H](C)[C@H]1O[C@@H]1O[C@H](CO)[C@@H](O)[C@H](O)[C@H]1O [LANATOSIDE C] ; what AC50 value has been reported?
> 30 µM
